Listing of recorded pKi by entry.
target entity: hNPFF1 (Homo sapiens, UniProt Q9GZQ6)
Sequence (Q9GZQ6 whole entry): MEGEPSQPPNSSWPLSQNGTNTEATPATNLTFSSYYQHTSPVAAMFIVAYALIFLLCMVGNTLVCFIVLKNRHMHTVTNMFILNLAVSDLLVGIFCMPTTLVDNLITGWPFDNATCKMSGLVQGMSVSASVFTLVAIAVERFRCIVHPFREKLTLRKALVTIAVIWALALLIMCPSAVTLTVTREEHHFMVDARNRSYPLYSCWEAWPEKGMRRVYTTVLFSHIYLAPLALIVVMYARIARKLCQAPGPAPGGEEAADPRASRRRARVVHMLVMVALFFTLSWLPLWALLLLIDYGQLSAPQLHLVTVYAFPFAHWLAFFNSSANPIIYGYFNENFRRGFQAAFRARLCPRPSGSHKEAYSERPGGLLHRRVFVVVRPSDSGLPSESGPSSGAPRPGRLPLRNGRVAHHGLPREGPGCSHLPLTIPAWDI
Remember, pKi is on a log scale: it is -log10 of the molar concentration.

O=C(N[C@H](CCCNCc1ccccc1)C(=O)NCCc1ccccc1)c1ccccc1-c1ccccc1 [Compound 2] :: 6.32
COc1ccc(-c2ccccc2C(=O)N[C@@H](CCCN2CCCCC2)C(=O)NCCCc2ccccc2)cc1 [Compound 29] :: 6.77
O=C(N[C@H](CCCN1CCCCC1)C(=O)NCCc1ccccc1)c1ccccc1-c1ccccc1 [Compound 27] :: 6.75
CN(CCC[C@H](NC(=O)c1ccccc1-c1ccccc1)C(=O)NCCc1ccccc1)Cc1ccccc1 [Compound 15] :: 6.17
O=C(NCCc1ccccc1)[C@H](CCCN1CCC(Cc2ccccc2)CC1)NC(=O)C12CC3CC(CC(C3)C1)C2 [Compound 44] :: 6.22
O=C(N[C@@H](CCCN1CCC(N2CCCCC2)CC1)C(=O)NCCc1ccccc1)c1ccccc1-c1ccccc1 [Compound 33] :: 7.15
COc1ccc(-c2ccccc2C(=O)N[C@@H](CCCN2CCCCCC2)C(=O)NCCCc2ccccc2)cc1 [Compound 30] :: 7.19
O=C(N[C@@H](CCCN1CCN(C(=O)c2ccccc2)CC1)C(=O)NCCc1ccccc1)c1ccccc1-c1ccccc1 [Compound 39] :: 6.73

Please look up its pKi: CN(CCC[C@H](NC(=O)c1ccccc1-c1ccccc1)C(=O)NCCc1ccccc1)CCc1ccccc1 [Compound 23]
6.99

====

target entity: hNPFF2 (Homo sapiens, UniProt Q9Y5X5)
Construct: The cDNA encoding the full-length human NPFFR1 and human NPFFR2; expressed in transfected cells
Sequence (Q9Y5X5 whole entry): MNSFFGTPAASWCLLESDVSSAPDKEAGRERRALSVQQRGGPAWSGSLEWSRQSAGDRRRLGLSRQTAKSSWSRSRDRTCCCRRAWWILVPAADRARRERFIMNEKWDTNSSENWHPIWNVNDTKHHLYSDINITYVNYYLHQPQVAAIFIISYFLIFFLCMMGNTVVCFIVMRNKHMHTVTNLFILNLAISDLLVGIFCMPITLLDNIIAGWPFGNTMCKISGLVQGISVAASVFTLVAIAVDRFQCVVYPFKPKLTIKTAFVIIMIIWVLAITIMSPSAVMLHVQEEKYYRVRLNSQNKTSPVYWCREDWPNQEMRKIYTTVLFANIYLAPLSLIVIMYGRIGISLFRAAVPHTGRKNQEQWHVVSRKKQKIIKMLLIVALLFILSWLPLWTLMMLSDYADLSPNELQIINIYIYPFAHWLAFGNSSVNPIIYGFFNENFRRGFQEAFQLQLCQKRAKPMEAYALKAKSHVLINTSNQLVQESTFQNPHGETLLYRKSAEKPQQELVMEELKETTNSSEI
measurement protocol: Receptor binding assay with [3H]-FFRFamide on CHO cell membranes expressing SF-hNPFFR2
test context: 0.5 µM; [3H]-FFRF-NH2 radioligand; mean of at least two experiments
quantity measured: inhibition at 0.5 µM (%)
Expressed in %, but write only the number.

Worked set:
CN(CCC[C@H](NC(=O)c1ccccc1-c1ccccc1)C(=O)NCCc1ccccc1)Cc1cccc(Cl)c1 [Compound 18] :: 8
O=C(N[C@@H](CCCNCCc1ccccc1)C(=O)NCCc1ccccc1)c1ccccc1-c1ccccc1 [Compound 3] :: 15
CC(=O)N1CCN(CCC[C@H](NC(=O)c2ccccc2-c2ccccc2)C(=O)NCCc2ccccc2)CC1 [Compound 35] :: 0

For hNPFF2 (Homo sapiens, UniProt Q9Y5X5), provide inhibition at 0.5 µM of O=C(N[C@H](CCCN1CCCCC1)C(=O)NCCc1ccccc1)c1ccccc1-c1ccccc1 [Compound 27] please.
0

For hNPFF2 (Homo sapiens, UniProt Q9Y5X5), provide inhibition at 0.5 µM of COc1cccc(CNCCC[C@H](NC(=O)c2ccccc2-c2ccccc2)C(=O)NCCc2ccccc2)c1 [Compound 9] please.
9

For hNPFF2 (Homo sapiens, UniProt Q9Y5X5), provide inhibition at 0.5 µM of CN(CCC[C@H](NC(=O)c1ccccc1-c1ccccc1)C(=O)NCCc1ccccc1)CCc1ccccc1 [Compound 23] please.
22

For hNPFF2 (Homo sapiens, UniProt Q9Y5X5), provide inhibition at 0.5 µM of O=C(N[C@@H](CCCN1CCC(N2CCCCC2)CC1)C(=O)NCCc1ccccc1)c1ccccc1-c1ccccc1 [Compound 33] please.
13

For hNPFF2 (Homo sapiens, UniProt Q9Y5X5), provide inhibition at 0.5 µM of O=C(N[C@@H](CCCN1CCC(N2C(=O)Cc3ccccc32)CC1)C(=O)NCCc1ccccc1)c1ccccc1-c1ccccc1 [Compound 37] please.
0

For hNPFF2 (Homo sapiens, UniProt Q9Y5X5), provide inhibition at 0.5 µM of CN1CCN(CCC[C@H](NC(=O)c2ccccc2-c2ccccc2)C(=O)NCCc2ccccc2)CC1 [Compound 34] please.
0

For hNPFF2 (Homo sapiens, UniProt Q9Y5X5), provide inhibition at 0.5 µM of O=C(N[C@H](CCCN1CCc2ccccc2C1)C(=O)NCCc1ccccc1)c1ccccc1-c1ccccc1 [Compound 25] please.
0

For hNPFF2 (Homo sapiens, UniProt Q9Y5X5), provide inhibition at 0.5 µM of O=C(N[C@@H](CCCN1CCC(c2ccccc2)CC1)C(=O)NCCc1ccccc1)c1ccccc1-c1ccccc1 [Compound 31] please.
0

For hNPFF2 (Homo sapiens, UniProt Q9Y5X5), provide inhibition at 0.5 µM of CN(CCC[C@H](NC(=O)c1ccccc1-c1ccccc1)C(=O)NCCc1ccccc1)Cc1ccccc1Cl [Compound 19] please.
0

====

target entity: hNPFF2 (Homo sapiens, UniProt Q9Y5X5)
Construct: The cDNA encoding the full-length human NPFFR1 and human NPFFR2; expressed in transfected cells
measurement protocol: Receptor binding assay with [3H]-FFRFamide on CHO cell membranes expressing SF-hNPFFR2
test context: 0.5 µM; [3H]-FFRF-NH2 radioligand; mean of at least two experiments
Assign class by inhibition at 0.5 µM: not lower than 4% means yes; lower than 4% means no.

O=C(N[C@@H](CCCNC1CCCCC1)C(=O)NCCc1ccccc1)c1ccccc1-c1ccccc1 [Compound 11] :: yes

// inclusive: inhibition at 0.5 µM at least 4%? input: COc1ccccc1CN(C)CCC[C@H](NC(=O)c1ccccc1-c1ccccc1)C(=O)NCCc1ccccc1 [Compound 16]
yes

// inclusive: inhibition at 0.5 µM at least 4%? input: O=C(N[C@@H](CCCN1CCC(Cc2ccccc2)CC1)C(=O)NCCc1ccccc1)c1ccccc1 [Compound 40]
yes

// inclusive: inhibition at 0.5 µM at least 4%? input: O=C(N[C@@H](CCCN1CCCCC1)C(=O)NCCCc1ccccc1)c1ccccc1-c1ccccc1 [Compound 28]
no

// inclusive: inhibition at 0.5 µM at least 4%? input: COc1ccc(CN(C)CCC[C@H](NC(=O)c2ccccc2-c2ccccc2)C(=O)NCCc2ccccc2)cc1 [Compound 21]
no

// inclusive: inhibition at 0.5 µM at least 4%? input: COc1cccc(CN(C)CCC[C@H](NC(=O)c2ccccc2-c2ccccc2)C(=O)NCCc2ccccc2)c1 [Compound 22]
yes

====

target entity: hNPFF2 (Homo sapiens)
Construct: The cDNA encoding the full-length human NPFFR1 and human NPFFR2; expressed in transfected cells
measurement protocol: Receptor binding assay with [3H]-FFRFamide on CHO cell membranes expressing SF-hNPFFR2
test context: 5 µM; [3H]-FFRF-NH2 radioligand; mean of at least two experiments
Assign class by inhibition at 5 µM: not lower than 40% means class 1; lower than 40% means class 0.

O=C(N[C@@H](CCCNC1CCCCC1)C(=O)NCCc1ccccc1)c1ccccc1-c1ccccc1 :: class 0
O=C(N[C@@H](CCCN1CCC(Cc2ccccc2)CC1)C(=O)NCCc1ccccc1)c1ccc2ccccc2n1 :: class 1
COc1ccc(-c2ccccc2C(=O)N[C@@H](CCCN2CCCCC2)C(=O)NCCCc2ccccc2)cc1 :: class 0
O=C(N[C@@H](CCCN1CCC(Cc2ccccc2)CC1)C(=O)NCCc1ccccc1)c1ccccc1 :: class 0
CN1CCN(CCC[C@H](NC(=O)c2ccccc2-c2ccccc2)C(=O)NCCc2ccccc2)CC1 :: class 0

Turning to the following compound.
// inclusive: inhibition at 5 µM at least 40%? input: COc1ccc(CN(C)CCC[C@H](NC(=O)c2ccccc2-c2ccccc2)C(=O)NCCc2ccccc2)cc1
class 1

====

target entity: hNPFF2 (Homo sapiens, UniProt Q9Y5X5)
Construct: The cDNA encoding the full-length human NPFFR1 and human NPFFR2; expressed in transfected cells
measurement protocol: Receptor binding assay with [3H]-FFRFamide on CHO cell membranes expressing SF-hNPFFR2
test context: [3H]-FFRF-NH2 radioligand; unit µM printed with the value; read-out: Ki NPFF2
quantity measured: Ki

Please look up its Ki: O=C(N[C@@H](CCCN1CCCCC1)C(=O)NCCc1ccccc1)c1ccccc1-c1ccccc1 [Compound 26]
> 13 µM

====

target entity: hNPFF2 (Homo sapiens, UniProt Q9Y5X5)
Construct: The cDNA encoding the full-length human NPFFR1 and human NPFFR2; expressed in transfected cells
measurement protocol: Receptor binding assay with [3H]-FFRFamide on CHO cell membranes expressing SF-hNPFFR2
test context: [3H]-FFRF-NH2 radioligand; mean of at least two experiments; read-out: Ki NPFF2
quantity measured: pKi
Remember, pKi is on a log scale: it is -log10 of the molar concentration.

Worked set:
O=C(NCCc1ccccc1)[C@H](CCCN1CCC(Cc2ccccc2)CC1)NC(=O)C12CC3CC(CC(C3)C1)C2 [Compound 44] :: 6.73
O=C(N[C@@H](CCCN1CCC(Cc2ccccc2)CC1)C(=O)NCCc1ccccc1)c1ccccc1-c1ccccc1 [Compound 32] :: 7.47
O=C(N[C@@H](CCCN1CCc2ccccc2C1)C(=O)NCCc1ccccc1)c1ccccc1-c1ccccc1 [Compound 24] :: 6.49

Please look up its pKi: COc1ccc(-c2ccccc2C(=O)N[C@@H](CCCN2CCCCCC2)C(=O)NCCCc2ccccc2)cc1 [Compound 30]
7.12

Please look up its pKi: CN(CCC[C@H](NC(=O)c1ccccc1-c1ccccc1)C(=O)NCCc1ccccc1)Cc1ccccc1 [Compound 15]
5.96

Please look up its pKi: O=C(N[C@@H](CCCNCc1ccccc1)C(=O)NCCc1ccccc1)c1ccccc1-c1ccccc1 [Compound 1]
5.64
